- Test system: MCF7;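 also: secreted proteins added to cultured cells, EdU pulse at the end, nuclei found by Hoechst imaging, EdU status from nuclear versus surrounding ring intensity ratio, PBS as neutral control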
- measurement_protocol: percentage of EdU-negative (G0-arrested) nuclei per well, 72 h; higher = more G0 arrest
- reported_conditions: protein concentration 0.257143 µM; reference: sequence is the full UniProt precursor, the tested protein was the secreted form or ectodomain
metric: percentage of EdU-negative (%)

[[record]]
input_sequence = "MERVQPLEENVGNAARPRFERNKLLLVASVIQGLGLLLCFTYICLHFSALQVSHRYPRIQSIKVQFTEYKKEKGFILTSQKEDEIMKVQNNSVIINCDGFYLISLKGYFSQEVNISLHYQKDEEPLFQLKKVRSVNSLMVASLTYKDKVYLNVTTDNTSLDDFHVNGGELILIHQNPGEFCVL"
readout_number = 27.3

[[record]]
input_sequence = "MKSLTWILGLWALAACFTPGESQRGPRGPYPPGPLAPPPPPCFPFGTGFVPPPHPPPYGPGRFPPPLSPPYGPGRIPPSPPPPYGPGRIQSHSLPPPYGPGYPQPPSQPRPYPPGPPFFPVNSPTDPALPTPAP"
readout_number = 26.5

[[record]]
input_sequence = "MAKDFQDIQQLSSEENDHPFHQGEGPGTRRLNPRRGNPFLKGPPPAQPLAQRLCSMVCFSLLALSFNILLLVVICVTGSQSEGHGGAQLQAELRSLKEAFSNFSSSTLTEVQAISTHGGSVGDKITSLGAKLEKQQQDLKADHDALLFHLKHFPVDLRFVACQMELLHSNGSQRTCCPVNWVEHQGSCYWFSHSGKAWAEAEKYCQLENAHLVVINSWEEQKFIVQHTNPFNTWIGLTDSDGSWKWVDGTDYRHNYKNWAVTQPDNWHGHELGGSEDCVEVQPDGRWNDDFCLQVYRWVCEKRRNATGEVA"
readout_number = 25.3

[[record]]
input_sequence = "MAPAMESPTLLCVALLFFAPDGVLAVPQKPKVSLNPPWNRIFKGENVTLTCNGNNFFEVSSTKWFHNGSLSEETNSSLNIVNAKFEDSGEYKCQHQQVNESEPVYLEVFSDWLLLQASAEVVMEGQPLFLRCHGWRNWDVYKVIYYKDGEALKYWYENHNISITNATVEDSGTYYCTGKVWQLDYESEPLNITVIKAPREKYWLQFFIPLLVVILFAVDTGLFISTQQQVTFLLKIKRTRKGFRLLNPHPKPNPKNN"
readout_number = 25.9

[[record]]
input_sequence = "MKSLTWILGLWALAACFTPGESQRGPRGPYPPGPLAPPQPFGPGFVPPPPPPPYGPGRIPPPPPAPYGPGIFPPPPPQP"
readout_number = 29.6

[[record]]
input_sequence = "MKVLLCDLLLLSLFSSVFSSCQRDCLTCQEKLHPALDSFDLEVCILECEEKVFPSPLWTPCTKVMARSSWQLSPAAPEHVAAALYQPRASEMQHLRRMPRVRSLFQEQEEPEPGMEEAGEMEQKQLQKRFGGFTGARKSARKLANQKRFSEFMRQYLVLSMQSSQRRRTLHQNGNV"
readout_number = 27.5

[[record]]
input_sequence = "MQLQASLSFLLILTLCLELRSELARDTIKDLLPNVCAFPMEKGPCQTYMTRWFFNFETGECELFAYGGCGGNSNNFLRKEKCEKFCKFT"
readout_number = 24.8

[[record]]
input_sequence = "MHLLLFQLLVLLPLGKTTRHQDGRQNQSSLSPVLLPRNQRELPTGNHEEAEEKPDLFVAVPHLVATSPAGEGQRQREKMLSRFGRFWKKPEREMHPSRDSDSEPFPPGTQSLIQPIDGMKMEKSPLREEAKKFWHHFMFRKTPASQGVILPIKSHEVHWETCRTVPFSQTITHEGCEKVVVQNNLCFGKCGSVHFPGAAQHSHTSCSHCLPAKFTTMHLPLNCTELSSVIKVVMLVEECQCKVKTEHEDGHILHAGSQDSFIPGVSA"
readout_number = 24.2

[[record]]
input_sequence = "MAPPSVPLVLLLVLLLSLAETPASAPAHRGRGGWTLNSAGYLLGPVLHLPQMGDQDGKRETALEILDLWKAIDGLPYSHPPQPSKRNVMETFAKPEIGDLGMLSMKIPKEEDVLKS [Q9UBC7]"
readout_number = 27.5

[[record]]
input_sequence = "MPGPWLLLALALTLNLTGVPGGRAQPEAAQQEAVTAAEHPGLDDFLRQVERLLFLRENIQRLQGDQGEHSASQIFQSDWLSKRQHPGKREEEEEEGVEEEEEEEGGAVGPHKRQHPGRREDEASWSVDVTQHKRQHPGRRSPWLAYAVPKRQHPGRRLADPKAQRSWEEEEEEEEREEDLMPEKRQHPGKRALGGPCGPQGAYGQAGLLLGLLDDLSRSQGAEEKRQHPGRRAAWVREPLEE"
readout_number = 25.8

[[record]]
input_sequence = "MRTQSLLLLGALLAVGSQLPAVFGRKKGEKSGGCPPDDGPCLLSVPDQCVEDSQCPLTRKCCYRACFRQCVPRVSVKLGSCPEDQLRCLSPMNHLCHKDSDCSGKKRCCHSACGRDCRDPARGTAPGCPGQANSDLGSVALHLSWGPTERVHDGRPGALPAGQHYLYQRWFQPSDNHWPADTSLQPIHPWFLLLGVKVHSLSSEEGLCITPVLCTTAIRASHPS [Q8TCV5]"
readout_number = 28.7

[[record]]
input_sequence = "MKKSGVLFLLGIILLVLIGVQGTPVVRKGRCSCISTNQGTIHLQSLKDLKQFAPSPSCEKIEIIATLKNGVQTCLNPDSADVKELIKKWEKQVSQKKKQKNGKKHQKKKVLKVRKSQRSRQKKTT"
readout_number = 27.7

[[record]]
input_sequence = "MKPWILLLVMFISGVVMLLPVLGSFWNKDPFLDMIRETEQCWVQPPYKYCEKRCTKIMTCVRPNHTCCWTYCGNICLDNEEPLKSMLNP [Q8NEX5]"
readout_number = 26.3

[[record]]
input_sequence = "MQKVTLGLLVFLAGFPVLDANDLEDKNSPFYYDWHSLQVGGLICAGVLCAMGIIIVMSAKCKCKFGQKSGHHPGETPPLITPGSAQS"
readout_number = 24.9

[[record]]
input_sequence = "MGRDLRPGSRVLLLLLLLLLVYLTQPGNGNEGSVTGSCYCGKRISSDSPPSVQFMNRLRKHLRAYHRCLYYTRFQLLSWSVCGGNKDPWVQELMSCLDLKECGHAYSGIVAHQKHLLPTSPPISQASEGASSDIHTPAQMLLSTLQSTQRPTLPVGSLSSDKELTRPNETTIHTAGHSLAAGPEAGENQKQPEKNAGPTARTSATVPVLCLLAIIFILTAALSYVLCKRRRGQSPQSSPDLPVHYIPVAPDSNT [Q9H2A7]"
readout_number = 25.9

[[record]]
input_sequence = "MKLSGMFLLLSLALFCFLTGVFSQGGQVDCGEFQDPKVYCTRESNPHCGSDGQTYGNKCAFCKAIVKSGGKISLKHPGKC [Q6UWN8]"
readout_number = 27.2

[[record]]
input_sequence = "MAAARLCLSLLLLSTCVALLLQPLLGAQGAPLEPVYPGDNATPEQMAQYAADLRRYINMLTRPRYGKRHKEDTLAFSEWGSPHAAVPRELSPLDL"
readout_number = 23.4


Hey, just so you know, these numbers are from the supplement of paper PMC11316812.
